Source of measurements: paper PMC9318802

Test Summary: In vivo oral pharmacokinetics in Sprague Dawley rats
Study Conditions: rat, blood, male Sprague Dawley rats, 10 mg/kg, n = 3
Measured half-life by item
The figure you give is taken to be in min; do not add the unit.

{"Molecule": "CC(=O)N(c1cc(F)cc(F)c1)c1nc2cc(Cl)ccc2c(=O)[nH]1 [Compound 2b]", "half-life (min)": 118}
{"Molecule": "CC(=O)N(c1cc(Cl)cc(Cl)c1)c1nc2cccc(O)c2c(=O)[nH]1 [Compound 2c]", "half-life (min)": 401}

Field: next molecule
[in] Dear colleague, please send me the reported half-life for CC(=O)N(c1cc(Cl)cc(Cl)c1)c1nc2cc(Cl)ccc2c(=O)[nH]1 [Compound 2a] when you can.
[out] 297
